experimental.target: MLLT1 YD (Homo sapiens, UniProt Q03111)
Sequence (Q03111 1-138 limits assumed): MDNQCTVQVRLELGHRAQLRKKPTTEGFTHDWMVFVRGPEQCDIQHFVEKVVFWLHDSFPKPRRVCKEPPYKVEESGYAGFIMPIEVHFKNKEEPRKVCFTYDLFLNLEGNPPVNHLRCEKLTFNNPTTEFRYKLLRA
outcome.measure: pKd
In simple prose, pKd is minus the logarithm base ten of a concentration in moles per litre.

In: What does the data say about its pKd? Entry: COC(=O)c1ccc(C(=O)Nc2ccc3[nH]c(CN4CCCCC4)nc3c2)cc1 [Compound 1]
Out: 6.00

---

experimental.target: YEATS2 (Homo sapiens)
Sequence (Q9ULM3 200-345 limits assumed): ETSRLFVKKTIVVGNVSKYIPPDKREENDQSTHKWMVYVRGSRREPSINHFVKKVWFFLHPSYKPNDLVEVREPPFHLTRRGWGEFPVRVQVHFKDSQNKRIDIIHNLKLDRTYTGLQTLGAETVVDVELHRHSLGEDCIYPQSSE
pIC50: −log10 of the molar value.
outcome.measure: pIC50

In: Short answer please: pIC50, YEATS2 (Homo sapiens), entry C[C@H]1CCCN1Cc1nc2cc(NC(=O)c3ccc4c(cnn4C)c3)ccc2[nH]1
Out: < 5.00
